# test protocol: Drug repurposing screens with cells derived from glioblastoma tumor samples (AID 1345199); also: % is scaled to controls: 0 for no effect and ±100 for the full control effect; nearly all actives have a fitted effect of over 40% in size
# applied conditions: GBM patient neurospheres viability, ATP luminescence, 48 h; at 45.9 µM (top of the series); tumour line B
Inconclusive results are not listed. Where a SMILES comes first, the peptide text is derived from it. Bridges are numbered along the chain shown (N, C = ends).
Answer each item with its documented activity, negative = cell killing.
Kindly provide the numeric value in % only, without the unit symbol.

Recorded result, `COC[C@H](c1ccc(C(F)(F)F)cc1)N1CCN(C2(C)CCN(C(=O)c3c(C)ncnc3C)CC2)C[C@H]1C` , activity, negative = cell killing: -1.49

Recorded result, C[C@@H]1C[C@H]2C3C[C@H](F)C4=CC(=O)C=CC4(C)[C@@]3(F)[C@@H](O)CC2(C)[C@@]1(O)C(=O)COC(=O)C(C)(C)C (some centres undefined) , activity, negative = cell killing: -6.93

Recorded result, `O=C(O)c1cc2ccccc2c(Cc2c(O)c(C(=O)O)cc3ccccc23)c1O` , activity, negative = cell killing: 5.19

Recorded result, `CCCCCCCCCCCCCCCC(=O)OC[C@H](O)[C@H]1OC(=O)C(O)=C1O` , activity, negative = cell killing: -21.6

Recorded result, `COc1cc2[nH]c(C)c(CCN3CCN(c4ccccc4)CC3)c2cc1OC` , activity, negative = cell killing: -18.7

Recorded result, OC(CN1CCCCC1)c1cc(-c2ccccc2)on1 (centres undefined) , activity, negative = cell killing: -15.5

Recorded result, `O=C(O)c1cccc(/C=C2/C[C@@H]3[C@@H](/C=C/[C@@H](O)C4CCCCC4)[C@H](O)C[C@@H]3O2)c1` , activity, negative = cell killing: -4.9

Recorded result, `CCOC(=O)Cc1cccc(-c2cc(CCCCCCc3ccc(O[C@H]4O[C@H](COC(C)=O)[C@@H](OC(C)=O)[C@H](OC(C)=O)[C@@H]4OC(C)=O)c(-c4cccc(CC(=O)OCC)c4)c3)ccc2O[C@H]2O[C@H](COC(C)=O)[C@@H](OC(C)=O)[C@H](OC(C)=O)[C@@H]2OC(C)=O)c1` , activity, negative = cell killing: -6.7

Recorded result, `NNc1nnc(Cc2ccncc2)c2ccccc12` , activity, negative = cell killing: -17.7

Recorded result, `CN(C)Cc1ccccc1` , activity, negative = cell killing: -9.24

Recorded result, `O=C(Cn1c(=O)sc2ccc(Cl)cc21)N1CCN(CCO)CC1` , activity, negative = cell killing: -0.42

Recorded result, `O=C1O[C@@H]2[C@@H](O)[C@H](O)O[C@@H]2[C@H]1O` , activity, negative = cell killing: -11.2

Recorded result, NCCCC[C@H](NC(=O)[C@@H]1CCCN1C(=O)[C@@H]1CSSC[C@H](NC(=O)CNC(=O)CNC(=O)CN)C(=O)N[C@@H](Cc2ccc(O)cc2)C(=O)N[C@@H](Cc2ccccc2)C(=O)N[C@@H](CCC(N)=O)C(=O)N[C@@H](CC(N)=O)C(=O)N1)C(=O)NCC(N)=O (H-GGGCYFQNCPKG-NH2; disulfide 4-9) , activity, negative = cell killing: -8.67

Recorded result, `COC1=C(C(=O)O)N2C(=O)[C@@H](NC(=O)[C@H](N)C3=CCC=CC3)[C@H]2SC1` , activity, negative = cell killing: -9.93

---

# Tested on: CRL-7250
# test protocol: Cytotoxic Profiling of Annotated Libraries Using Quantitative High-Throughput Screening (AID 1296008); also: % is scaled to controls: 0 for no effect and ±100 for the full control effect; nearly all actives have a fitted effect of over 60% in size
# applied conditions: Five cell lines viability, CellTiter-Glo ATP luminescence, 48-72 h; hits give low values
Inconclusive results are not listed.
Answer each item with its documented max response.
Kindly provide the numeric value in % only, without the unit symbol.

Recorded result, `CNCc1cc(-c2ccccc2F)n(S(=O)(=O)c2cccnc2)c1` , max response: -3.13

Recorded result, `COc1ccc2c(NC(=O)Nc3cccc(C(F)(F)F)n3)ccnc2c1` , max response: -17.8

Recorded result, `O=C(NCCCN1CCOCC1)c1cnn2c(-c3ccccc3)cc(-c3ccccc3)nc12` , max response: -7.62

Recorded result, `OC1(CN2CCC(COc3noc4cccc(O[C@@H]5CCOC5)c34)CC2)CCOCC1` , max response: -0.0295

Recorded result, O=C(O)c1cccc(-c2ccc(-c3cn(C(=O)N4CCCCC4Cc4ccccc4)nn3)cc2)c1 (stereo not drawn) , max response: 0.106

Recorded result, COC(=O)C[C@H]1[C@]2(C)C3=C(C)[C@H](c4ccoc4)C[C@H]3O[C@@H]2[C@H](O)C2[C@](C)(C(=O)OC)C=CC(=O)[C@@]21C (stereo partly drawn) , max response: -6.81

Recorded result, `COc1ccc(-c2c(C)nn3c(NCCN4CCOCC4)cc(C)nc23)cc1OC` , max response: -19

Recorded result, `COc1cc(C(N)=O)nc(-c2ccccn2)c1O` , max response: -12.9

---

# Test system: OV90
# test protocol: Primary qHTS to identify gynecologic anti-cancer compounds using libraries of approved drugs and bioactive compounds (AID 1345084); also: nearly all actives have a fitted effect of over 55% in size
# applied conditions: Gynecologic cancer cell panel viability, ATPlite luminescence, 48 h; series mostly up to 57.5 µM
Inconclusive results are not listed. The source made the active and inactive calls. Calls come from the whole dose curve; as a rule, active = well fitted cell-killing curve with a large enough effect; inconclusive = small, poorly fitted or top-dose-only effect, or effect the other way; inactive = flat fitted curve, though single readings scatter.
Write down the outcome that applies. Available outcomes: active, inactive

Query: Write down the call the test reported for this molecule. Item: C=C1[C@@H](OC(C)=O)CC[C@@]2(C)[C@@H](OC(C)=O)[C@H](OC(C)=O)C3=C(C)C[C@H](OC(=O)C(C)CC)[C@@H]([C@@H](OC(C)=O)[C@H]12)C3(C)C (some centres not stated)
Response: inactive

Query: Write down the call the test reported for this molecule. Item: `Cc1nc(C#Cc2ccnc(Cl)c2)c(C)n1-c1ccc(F)cc1`
Response: inactive

Query: Write down the call the test reported for this molecule. Item: `COc1c(CCC(=O)O)cccc1O[C@@H]1O[C@H](CO)[C@@H](O)[C@H](O)[C@H]1O`
Response: inactive

Query: Write down the call the test reported for this molecule. Item: `CCCn1cc2c(nc(NC(=O)Nc3ccc(OC)cc3)n3nc(-c4ccco4)nc23)n1`
Response: inactive

Query: Write down the call the test reported for this molecule. Item: `COc1cccc(N2CCN(C3=Nc4c(F)cccc4[C@H](CC(=O)O)N3c3cc(C(F)(F)F)ccc3OC)CC2)c1`
Response: inactive

Query: Write down the call the test reported for this molecule. Item: `Cc1cc(NC(=O)c2cccc(NC(=O)/C=C/CN(C)C)c2)ccc1Nc1nccc(-c2cccnc2)n1`
Response: inactive

Query: Write down the call the test reported for this molecule. Item: `COC(=O)C(Cc1ccc(OCCn2c(=O)sc3cc(C(=O)c4ccccc4)ccc32)cc1)C(=O)OC`
Response: inactive

Query: Write down the call the test reported for this molecule. Item: CC[C@@H](C)Nc1cc(C(=O)NC2CC3CC[C@@H](C2)N3c2ccc(C(=O)C3CC3)cn2)c(C)cc1C(N)=O (some centres not stated)
Response: active

Query: Write down the call the test reported for this molecule. Item: `O=C(NC[C@H]1CN(c2ccc(N3CCOCC3=O)cc2)C(=O)O1)c1ccc(Cl)s1`
Response: inactive

Query: Write down the call the test reported for this molecule. Item: `Cc1ccc(-c2c(C(=O)CCl)n(CCCO)c3ncnc(N)c23)cc1`
Response: inactive

Query: Write down the call the test reported for this molecule. Item: `COCCN(C(=O)c1cc(OC)c(OC)c(OC)c1)c1nc(-c2ccccc2)cs1`
Response: inactive

Query: Write down the call the test reported for this molecule. Item: `CC(C)Oc1ccc(-c2cnc3c(-c4ccnc5ccccc45)cnn3c2)cc1`
Response: inactive

Query: Write down the call the test reported for this molecule. Item: `CCCN1CCC=C(c2cc(-c3ccc(C)cc3)no2)C1`
Response: inactive

Query: Write down the call the test reported for this molecule. Item: COCC(c1ccc(C(F)(F)F)cc1)N1CCN(C2(C)CCN(C(=O)c3c(C)ncnc3C)CC2)CC1C (configuration not stated)
Response: inactive

Query: Write down the call the test reported for this molecule. Item: `O=C(NC1(c2ccccc2)CC1)c1c(CN2CCC(N3CCCCC3)CC2)c(-c2cccc(C(F)(F)F)c2)nc2cc(Br)ccc12`
Response: active

Query: Write down the call the test reported for this molecule. Item: `COc1cc(C(=O)NC(=S)Nc2cccc(NC(=O)c3ccccc3)c2)cc(OC)c1OC`
Response: inactive

Query: Write down the call the test reported for this molecule. Item: `Cc1c(C2=CCN(C(=O)N(C)C(C)C)CC2)nnn1-c1cccnc1F`
Response: inactive

Query: Write down the call the test reported for this molecule. Item: C=C1C(=O)OC2/C=C(\C)CC/C=C(\C=O)C(OC)C(OC(=O)C(C)CC)C12 (configuration not stated)
Response: inactive

Query: Write down the call the test reported for this molecule. Item: `O=C(Nc1ccccc1Cl)c1cnc2ccc(C3CCNCC3)cn12`
Response: active

Query: Write down the call the test reported for this molecule. Item: C/C=C(\C)C(=O)OC1C(C)C2(O)C(C=C(CO)CC3(O)C(=O)C(C)=CC32)C2C(C)(C)C12OC(=O)C(C)C (configuration not stated)
Response: inactive

Query: Write down the call the test reported for this molecule. Item: `COc1ccc(Sc2ccc(NC(=O)c3ccccc3Cl)cc2C#N)cc1`
Response: inactive

Query: Write down the call the test reported for this molecule. Item: `O=C(Nc1cccnn1)N1CCN(c2nccc(-c3ccc(F)c(F)c3)n2)CC1`
Response: inactive

Query: Write down the call the test reported for this molecule. Item: `CN1CCN(C(=O)CN[C@@H]2C[C@H]2c2ccc(OCc3ccccc3)cc2)CC1`
Response: inactive

Query: Write down the call the test reported for this molecule. Item: CC(=O)OC1C(=O)C2C3OCC4=C3[C@@](C)(CC[C@@H]4O)CC[C@]2(C)[C@H]1C(C)C (some centres not stated)
Response: inactive

Query: Write down the call the test reported for this molecule. Item: `Cc1ccc(-c2ncccn2)c(C(=O)N2C[C@H](COc3ccc(F)cn3)CC[C@H]2C)c1`
Response: inactive

Query: Write down the call the test reported for this molecule. Item: `COc1ccccc1N1CCN(CC[C@@](C)(C(=O)C2CCCCC2)c2ccccc2)CC1`
Response: inactive

Query: Write down the call the test reported for this molecule. Item: C=C[C@@]1(C)CCC2C(=CCC3[C@]2(C)CCC[C@@]3(C)C(=O)O)C1 (some centres not stated)
Response: inactive
